system: NCI-H1734; assay: relative viability (nuclei count vs DMSO), 5 days (fraction); higher = more cells survive; conditions: first compound 2 µM
Below is a list of entries, each paired with its recorded relative viability value.

- compound: "COCC1(CO)C(=O)C2CCN1CC2 (centres undefined) [PRIMA-1MET] + COc1cc2c(Oc3ccc(NC(=O)C4(C(=O)Nc5ccc(F)cc5)CC4)cc3F)ccnc2cc1OCCCN1CCOCC1 [Foretinib] (partner 0.25 µM)"
  relative viability: 0.741
- compound: "COCC1(CO)C(=O)C2CCN1CC2 (centres undefined) [PRIMA-1MET] + CS(=O)(=O)CCNCc1ccc(-c2ccc3ncnc(Nc4ccc(OCc5cccc(F)c5)c(Cl)c4)c3c2)o1 [Lapatinib] (partner 2 µM)"
  relative viability: 0.857
- compound: "COCC1(CO)C(=O)C2CCN1CC2 (centres undefined) [PRIMA-1MET] + O=C(c1cc(Cc2n[nH]c(=O)c3ccccc23)ccc1F)N1CCN(C(=O)C2CC2)CC1 [Olaparib] (partner 8 µM)"
  relative viability: 0.581
- compound: "COCC1(CO)C(=O)C2CCN1CC2 (centres undefined) [PRIMA-1MET] + Cc1nc(NC(=O)N2CCC[C@H]2C(N)=O)sc1-c1ccnc(C(C)(C)C(F)(F)F)c1 [Alpelisib] (partner 2 µM)"
  relative viability: 0.679

###

system: RERF-LC-KJ; experiment: relative viability (nuclei count vs DMSO), 5 days (fraction); higher = more cells survive; conditions: first compound 0.08 µM

- molecule: "O=c1cc(-c2cccc3c2Sc2ccccc2S3)oc(N2CCOCC2)c1 + NC(=O)Nc1cc(-c2cccc(F)c2)sc1C(=O)N[C@H]1CCCNC1 [AZD7762] (partner 0.2 µM)"
  relative viability: 0.913
- molecule: "O=c1cc(-c2cccc3c2Sc2ccccc2S3)oc(N2CCOCC2)c1 + COc1cc2c(Oc3ccc(NC(=O)C4(C(=O)Nc5ccc(F)cc5)CC4)cc3F)ccnc2cc1OCCCN1CCOCC1 [Foretinib] (partner 0.25 µM)"
  relative viability: 0.836
- molecule: "COc1nc(C)cnc1NS(=O)(=O)c1cccnc1-c1ccc(-c2nnco2)cc1 [Zibotentan] + N=C(N)NC(=N)NCCc1ccccc1 [Phenformin] (partner 250 µM)"
  relative viability: 0.423
- molecule: "O=c1cc(-c2cccc3c2Sc2ccccc2S3)oc(N2CCOCC2)c1 + CC(=O)Nc1cccc(-n2c(=O)n(C3CC3)c(=O)c3c(Nc4ccc(I)cc4F)n(C)c(=O)c(C)c32)c1 [Trametinib] (partner 0.02 µM)"
  relative viability: 0.79
- molecule: "COc1nc(C)cnc1NS(=O)(=O)c1cccnc1-c1ccc(-c2nnco2)cc1 [Zibotentan] + O=C(c1cc(Cc2n[nH]c(=O)c3ccccc23)ccc1F)N1CCN(C(=O)C2CC2)CC1 [Olaparib] (partner 8 µM)"
  relative viability: 0.832
- molecule: "COc1nc(C)cnc1NS(=O)(=O)c1cccnc1-c1ccc(-c2nnco2)cc1 [Zibotentan] + NC(=O)Nc1cc(-c2cccc(F)c2)sc1C(=O)N[C@H]1CCCNC1 [AZD7762] (partner 0.2 µM)"
  relative viability: 1.16
- molecule: "COc1nc(C)cnc1NS(=O)(=O)c1cccnc1-c1ccc(-c2nnco2)cc1 [Zibotentan] + CCNC(=O)c1noc(-c2cc(C(C)C)c(O)cc2O)c1-c1ccc(CN2CCOCC2)cc1 [Luminespib] (partner 0.01 µM)"
  relative viability: 1.3
- molecule: "COc1nc(C)cnc1NS(=O)(=O)c1cccnc1-c1ccc(-c2nnco2)cc1 [Zibotentan] + Nc1ncn([C@H]2C[C@H](O)[C@@H](CO)O2)c(=O)n1 [Decitabine] (partner 2 µM)"
  relative viability: 0.699
- molecule: "O=c1cc(-c2cccc3c2Sc2ccccc2S3)oc(N2CCOCC2)c1 + CCNC(=O)c1noc(-c2cc(C(C)C)c(O)cc2O)c1-c1ccc(CN2CCOCC2)cc1 [Luminespib] (partner 0.01 µM)"
  relative viability: 1.06
